Molecular target: T1, human MSLN-R1-his protein (human, UniProt Q13421 296-390)
T1 construct: Region 1 of human mesothelin, made in HEK293E cells, His-tagged; also called human MSLN-R1 protein; hMSLN-R1-his; not shown: His tag
T1 chain: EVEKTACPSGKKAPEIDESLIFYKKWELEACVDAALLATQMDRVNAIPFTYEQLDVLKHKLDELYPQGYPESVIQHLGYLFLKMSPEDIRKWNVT
Test: ELISA on coated MSLN-R1; antibody 100 nM
readout_type: OD450

| binder | recorded_value |
| --- | --- |
| S009-F8-9.16 (antibody, human IgG1, kappa, V domains shown) VH: EVHLQQSGPVLVKPGASVKMSCKASGYTFTDYFMNWVKQSHGKSLEWIGVINPHNGYVNYNQKFQGRATLTVDKSSSTVYMELNSLTSEDSAVYHCARSAESAWFAYWGQRTLVTVSA VL: DVLMTQTPLSLPVSLGDQVSISCRSSQSIVHVKGNTYLEWYLQKPGQSPELLIYKVSNRFSGVPDRFSGGGSGTDFTLKISRVEPEDLGVYYCFQGSHLPYTFGGGTKLEIKR | 0.09 OD450 |
| S009-F8-19.21 (antibody, human IgG1, kappa, V domains shown) VH: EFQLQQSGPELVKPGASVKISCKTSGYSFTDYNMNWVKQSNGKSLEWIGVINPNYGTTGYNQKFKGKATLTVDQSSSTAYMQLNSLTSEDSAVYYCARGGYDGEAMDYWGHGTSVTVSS VL: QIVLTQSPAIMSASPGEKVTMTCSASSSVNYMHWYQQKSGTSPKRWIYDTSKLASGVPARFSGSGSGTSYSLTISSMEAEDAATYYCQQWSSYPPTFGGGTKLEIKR | 2.13 OD450 |
| S009-F8-18.9 (antibody, human IgG1, kappa, V domains shown) VH: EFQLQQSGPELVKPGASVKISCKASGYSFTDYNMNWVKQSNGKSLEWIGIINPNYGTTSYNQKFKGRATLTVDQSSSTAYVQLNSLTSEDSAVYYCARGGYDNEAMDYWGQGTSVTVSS VL: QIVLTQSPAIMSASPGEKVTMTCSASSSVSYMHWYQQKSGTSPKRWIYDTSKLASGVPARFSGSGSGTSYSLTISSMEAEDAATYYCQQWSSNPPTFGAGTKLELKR | 2.15 OD450 |
| S009-F8-33.12 (antibody, human IgG1, kappa, V domains shown) VH: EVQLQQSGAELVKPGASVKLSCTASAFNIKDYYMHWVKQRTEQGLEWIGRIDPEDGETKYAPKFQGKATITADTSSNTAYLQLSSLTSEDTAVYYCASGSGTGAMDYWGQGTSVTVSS VL: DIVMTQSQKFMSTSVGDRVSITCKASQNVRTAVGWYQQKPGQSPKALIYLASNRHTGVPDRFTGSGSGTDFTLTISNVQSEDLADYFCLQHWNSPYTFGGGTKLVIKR | 2.64 OD450 |

Measured values drawn from patent US20250250357A1 for this set.
